# MEASUREMENT_PROTOCOL: thallium flux activation in parental CHO cells, counter-screen for KCNQ1 potentiator project (AID 493006);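 as to activation: fluorescence ratio of max minus min over baseline after K+ and Tl+ depolarization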
# STATED_CONDITIONS: parental CHO-K1 cells, FluxOR thallium flux, at 10 µM
Activity calls are given as the source filed them.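 The calls were made as follows: active = duplicate-averaged activation above buffer control mean plus 5 SD of those controls; inactive = the rest.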
Labels: 1.0 (active), 0.0 (inactive)

>>> class_label("O=C(CC(=O)c1ccccc1O)c1cccc(F)c1")
1.0
>>> class_label("O=C(NCCCN1CCCC1)c1ccc2c(c1)N(Cc1ccccc1)CCS2")
0.0
>>> class_label("Cc1ccc(O)c(C(=O)CC(=O)c2ccccc2Cl)c1")
1.0
>>> class_label("Cc1noc(C)c1S(=O)(=O)Nc1ccc(C#N)cc1")
0.0
>>> class_label("CCCCNC(=O)/C(C#N)=C/c1ccc2c(c1)OCCO2")
0.0
>>> class_label("Cc1cc(OCC(=O)NNC(=O)c2cnccn2)cc(C)c1Cl")
1.0
>>> class_label("CCN1C(=O)/C(=C/c2ccc(OCc3ccc(C(=O)O)cc3)c(Cl)c2)NC1=S")
1.0
>>> class_label("O=C(CSc1nc(-c2ccccc2)cs1)N1CCc2ccccc21")
0.0
